- TESTED SYSTEM: Ubiquitin carboxyl-terminal hydrolase 2 (Homo sapiens) (UniProt O75604)
- Sequence (O75604 whole entry, looked up): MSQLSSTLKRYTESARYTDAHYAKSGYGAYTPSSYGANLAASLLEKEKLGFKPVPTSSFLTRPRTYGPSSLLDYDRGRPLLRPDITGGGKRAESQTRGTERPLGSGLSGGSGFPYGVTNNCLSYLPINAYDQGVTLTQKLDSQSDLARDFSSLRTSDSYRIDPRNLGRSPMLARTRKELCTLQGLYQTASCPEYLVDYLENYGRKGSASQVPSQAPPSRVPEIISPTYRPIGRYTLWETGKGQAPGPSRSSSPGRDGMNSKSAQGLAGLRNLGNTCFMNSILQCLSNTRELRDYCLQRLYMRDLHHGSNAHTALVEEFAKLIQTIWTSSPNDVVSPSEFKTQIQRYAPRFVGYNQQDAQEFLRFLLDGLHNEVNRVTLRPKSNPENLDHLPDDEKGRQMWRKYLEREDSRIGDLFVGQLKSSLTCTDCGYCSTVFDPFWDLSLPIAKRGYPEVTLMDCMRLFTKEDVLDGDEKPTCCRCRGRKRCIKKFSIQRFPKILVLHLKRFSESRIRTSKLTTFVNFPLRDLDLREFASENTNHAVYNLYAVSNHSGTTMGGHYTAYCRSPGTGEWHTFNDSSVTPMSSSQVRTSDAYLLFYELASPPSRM
- EXPERIMENT: qHTS Assay for Inhibitors of Ubiquitin-specific Protease USP2a; further: nearly all actives have a fitted effect of over 60% in size; further: potency means the concentration at half of the fitted maximal effect
- CONDITION CONTEXT: USP2a enzymatic assay; qHTS inhibition; series mostly up to 38.3 µM
In all, about 60,000 compounds went through this assay and about 65 (0.1%) were called active. The sample holds actives, similar compounds and a random draw of the others, so the mix is not that of the screen.
QUANTITY: Potency

In the examples that follow, each entry is paired with its recorded Potency.
COMPOUND | Potency
Cc1cccc(C(=O)Nc2ccc(CC(=O)O)cc2)c1 | inactive
Nc1nc2[nH]c(=O)c(=O)[nH]c2c(=O)[nH]1 | inactive
CC(=O)Nc1ccc(S(=O)(=O)N2CCC(N(C)CCC(C)C)CC2)cc1 | inactive
CC1C(O)CC2C(C(=O)O)=CO[C@@H](O[C@H]3OC(CO)C(O)C(O)C3O)C21 (stereo partly specified) | inactive
COc1ccc(CNC2CCCCC2)cc1 | inactive
CC(C)NC(=O)N1CCCC2(CCN(C(=O)c3cccn3C)CC2)C1 | 10 µM (active)
c1csc(-c2cn3c(n2)SCC3)c1 | inactive
Nc1nc2nc(Cl)[nH]c2c(=O)[nH]1 | inactive
O=C1OC(C(O)CO)C(O)=C1O (stereo unspecified) | inactive
CC1CC[C@@]23CCC4(C)[C@@]5(C)CCC6C(C)(C)C(O)CC[C@@]6(C)C5C=C[C@@]4(OC2=O)C3C1C (stereo partly specified) | inactive

Query: Potency lookup needed for "CN1CCC2(CC1)CCN(S(=O)(=O)c1ccccc1)CC2" , thanks.
Reply: inactive

* * *

- TESTED SYSTEM: Ubiquitin carboxyl-terminal hydrolase 2 (Homo sapiens) (UniProt O75604)
- EXPERIMENT: qHTS Assay for Inhibitors of Ubiquitin-specific Protease USP2a; further: nearly all actives have a fitted effect of over 60% in size
- CONDITION CONTEXT: USP2a enzymatic assay; qHTS inhibition; series mostly up to 38.3 µM
About 65 (0.1%) of roughly 60,000 compounds were called active. Calls come from the whole dose curve; as a rule, active = well fitted inhibition curve with a large enough effect; inconclusive = small, poorly fitted or top-dose-only effect; inactive = no such curve, though single readings can be large or run the other way. The full list was thinned out, with actives kept by preference.
# output must be one of True (active), False (inactive)

MOLECULE | CLASS ASSIGNMENT
Cc1cccc(-n2ncc3c(N4CCc5ccccc54)ncnc32)c1 | False
Cc1cc(=O)[nH]c(=S)[nH]1 | False
O=c1c2ccccc2oc2nc(C3CCCCC3)n(Cc3ccco3)c(=O)c12 | False
COc1ccc(C2C(C#N)=C(N)Oc3n[nH]c(C)c32)cc1CN1CCN(c2ccc(F)cc2)CC1 (stereo not drawn) | False

Query: Please indicate how the test categorized "CCOC(=O)[C@H]1CCC[C@@H](NS(=O)(=O)c2ccc(NC(C)=O)cc2)C1" .
Reply: False

Query: Please indicate how the test categorized "Cc1c(NC(=O)Nc2ccccc2Cl)sc(=S)n1C" .
Reply: False

Query: Please indicate how the test categorized O=C(O)C1CCN1C1CCCCC1 (stereo not drawn) .
Reply: False

Query: Please indicate how the test categorized "Cc1c(O)cc(O)c2c(=O)c(-c3ccc(O)cc3)coc12" .
Reply: False

Query: Please indicate how the test categorized O=C1NC(c2cc3c(cc2Cl)OCO3)Oc2ccccc21 (stereo not drawn) .
Reply: False

Query: Please indicate how the test categorized CC12C(=O)N(n3cnnc3)C(=O)C1C1C=CC2C1 (stereo not drawn) .
Reply: False

Query: Please indicate how the test categorized CSCCC(NC(=O)c1ccc(=O)n(C)n1)c1nc2ccccc2[nH]1 (stereo not drawn) .
Reply: False

Query: Please indicate how the test categorized CC(NC(=O)Nc1ccccc1)c1ccccc1 (stereo not drawn) .
Reply: False

Query: Please indicate how the test categorized Cc1cccc(CC(=O)Nc2c3c(nn2-c2cccc(Cl)c2)CS(=O)C3)c1 (stereo not drawn) .
Reply: False

Query: Please indicate how the test categorized "Cc1nn(C)c(C)c1S(=O)(=O)N1CCc2ccccc21" .
Reply: False

Query: Please indicate how the test categorized "O=C(c1ccc(=O)[nH]c1)N(Cc1ccco1)C1(C(=O)NC2CCCCC2)CCCCC1" .
Reply: False

Query: Please indicate how the test categorized "COc1ccc(N2CCN(CCNC(=O)c3nnc(Cc4c(F)cccc4Cl)o3)CC2)cc1" .
Reply: False

Query: Please indicate how the test categorized CC1(C)C=CC(=O)[C@]2(C)C1CC(=O)[C@]1(C)C2CC[C@@]2(C)C(c3ccoc3)OC(=O)C3OC321 (stereo partly drawn) .
Reply: False

Query: Please indicate how the test categorized "c1cncc(CNc2ccnc(-c3ccc4c(c3)OCO4)n2)c1" .
Reply: False

Query: Please indicate how the test categorized CC1(C)OC2CC(=O)OC[C@@]23C1CC(=O)[C@]1(C)C3CC[C@@]2(C)C(c3ccoc3)OC(=O)C3O[C@@]321 (stereo partly drawn) .
Reply: False

Query: Please indicate how the test categorized CC1O[C@@H](Oc2c(-c3ccc(O)c(O)c3)oc3cc(O)cc(O)c3c2=O)C(O)C(O)C1O (stereo partly drawn) .
Reply: False

Query: Please indicate how the test categorized "FC(F)(F)c1ccccc1-c1nc(-n2ccnc2)c2ccccc2n1" .
Reply: False

Query: Please indicate how the test categorized Cc1cccc2c3c(ccc12)C1=C(C(=O)C3=O)C(C)CO1 (stereo not drawn) .
Reply: False

Query: Please indicate how the test categorized CCOC(=O)C1C(=O)OC2(CCCC2)C1C(=O)OCC (stereo not drawn) .
Reply: False

* * *

- TESTED SYSTEM: Ubiquitin carboxyl-terminal hydrolase 2 (Homo sapiens) (UniProt O75604)
- EXPERIMENT: qHTS Assay for Inhibitors of Ubiquitin-specific Protease USP2a; further: nearly all actives have a fitted effect of over 60% in size;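 on activity change, negative = inhibition: plate controls were DMSO for no effect and NEM full inhibition control for full effect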
- CONDITION CONTEXT: USP2a enzymatic assay; series mostly up to 38.3 µM
- Description: NIH Molecular Libraries Screening Centers Network [MLSCN] NIH Chemical Genomics Center [NCGC] PI Name: Nicholson, Ben. Progenra Inc, Malvern, PA Homeostasis of cellular proteins is maintained through a combination of synthesis and degradation. […] The reporter enzyme chosen is phospholipase A2 (PLA2), which has an absolute requirement for a free amino terminus. […] Thus, this coupled assay gives a fluorescent read-out, which is generated through the cleavage of the PLA2 reporter enzyme. […]
Out of some 60,000 compounds screened, about 65 (0.1%) were called active. The full list was thinned out, with actives kept by preference.
Recorded activity change, negative = inhibition for the following compounds

In the examples that follow, each entry is paired with its recorded activity change, negative = inhibition.
COMPOUND | QUANTITY | TEST RESULT
CCOc1ccccc1N(CC(=O)Nc1ccccc1C(=O)OC)S(C)(=O)=O | activity change, negative = inhibition | -1.62% [at 7.66 µM] (inactive)
O=C(NCCCNCc1ccccc1)c1ccc(/C=N/O)nc1 | activity change, negative = inhibition | 5.49% [at 7.66 µM] (inactive)

Query: activity change, negative = inhibition lookup needed for "COc1cc(OC)c(NC(=O)c2ccc(Br)o2)cc1Cl" , thanks.
Reply: 12% [at 7.66 µM] (inactive)

Query: activity change, negative = inhibition lookup needed for COc1cccc(C2/C(=C(/O)c3ccc(F)cc3)C(=O)C(=O)N2CCN(C)C)c1 (centres undefined) , thanks.
Reply: 4.13% [at 7.66 µM] (inactive)

* * *

- TESTED SYSTEM: Ubiquitin carboxyl-terminal hydrolase 2 (Homo sapiens) (UniProt O75604)
- EXPERIMENT: qHTS Assay for Inhibitors of Ubiquitin-specific Protease USP2a; further: nearly all actives have a fitted effect of over 60% in size
- CONDITION CONTEXT: USP2a enzymatic assay; qHTS inhibition; series mostly up to 38.3 µM
Among all 60,000 compounds or so, about 65 (0.1%) were called active. For the sample, actives were picked, then their nearest neighbours and some compounds at random.
QUANTITY: outcome

In the examples that follow, each entry is paired with its recorded outcome.
COMPOUND | TEST RESULT
CN(C)c1cc(N)c2ccccc2n1 (tested in a mixture with another compound) | inactive
CCOC(=O)Cc1csc(NC(=O)C(C)(C)C)n1 | inactive
C/C=C(/C)C(=O)OC1Cc2c(ccc3ccc(=O)oc23)OC1(C)C (stereo unspecified) | inactive
COc1cccc(C(CC(=O)NCCN2CCOCC2)NS(=O)(=O)c2ccc(C)cc2)c1OC (stereo unspecified) | inactive
O=C(O)c1ccc(COCC(F)(F)F)cc1 | inactive

Field: next compound
Query: outcome lookup needed for COCCCN1C(=O)C(=O)/C(=C(/O)c2ccc3c(c2)CC(C)O3)C1c1cccnc1 (stereo unspecified) , thanks.
Reply: inactive

* * *

- TESTED SYSTEM: Ubiquitin carboxyl-terminal hydrolase 2 (Homo sapiens) (UniProt O75604)
- EXPERIMENT: qHTS Assay for Inhibitors of Ubiquitin-specific Protease USP2a; further: nearly all actives have a fitted effect of over 60% in size
- CONDITION CONTEXT: USP2a enzymatic assay; qHTS inhibition; series mostly up to 38.3 µM
About 65 (0.1%) of roughly 60,000 compounds were called active. Calls come from the whole dose curve; as a rule, active = well fitted inhibition curve with a large enough effect; inconclusive = small, poorly fitted or top-dose-only effect; inactive = no such curve, though single readings can be large or run the other way. The list comes from a sample in which actives are over-represented; it also holds close analogues and randomly drawn compounds.
# output must be one of active, inactive

MOLECULE | CLASS ASSIGNMENT
O=C(NC1CCN(Cc2ccccc2)CC1)c1ccccc1F | inactive
Nc1nc2c(nc(Cl)n2C2OC(CO)C(O)C2O)c(=O)[nH]1 (stereo not given) | inactive
COc1ccc(C2CC(=O)C=C(NCC3CCCO3)C2)cc1 (stereo not given) | inactive
CC(=O)C1C(c2cccc(Oc3ccccc3)c2)NC(=O)NC1(O)C(F)(F)F (stereo not given) | inactive
Cc1ccc(C)c(NC(=O)C2CC(=O)N(C(C)C)C2)c1 (stereo not given) | inactive
CC(C)(O)CCC(O)[C@@](C)(O)C1CC[C@]2(O)C3=CC(=O)C4CC(O)C(O)C[C@]4(C)C3CC[C@]12C (stereo not given in full) | inactive
CC(=O)N1CCC2(CCCN(Cc3ccc(C#N)cc3)C2)CC1 | inactive
O=c1c(O)c(-c2ccc(O)cc2)oc2ccccc12 | inactive
CC(=O)OCC(=O)C1CCC2C3CCC4=CC(=O)CC[C@@]4(C)C3CC[C@]12C (stereo not given in full) | inactive
Cc1cc(NC(=O)CSc2nnc(-c3ccc(Cl)s3)o2)no1 | inactive

Query: Please indicate how the test categorized "CCOC(=O)C1CCN(C(=O)Cc2c(C(=O)O)[nH]c3ccccc23)CC1" .
Reply: inactive

Query: Please indicate how the test categorized "CC[C@@H]1Cc2cc(O)ccc2C2=C1c1ccc(O)cc1C[C@H]2CC" .
Reply: active

Query: Please indicate how the test categorized CC(C)C1=CC2=CC[C@@H]3[C@](C)(CO)CCC[C@]3(C)C2CC1 (stereo not given in full) .
Reply: inactive

Query: Please indicate how the test categorized "Cc1nnc(SCC(=O)NCCOc2ccc(Cl)cc2)n1-c1ccccc1" .
Reply: inactive

Query: Please indicate how the test categorized "O=C1CCC(=O)N1CCOP1(=O)COc2ccccc2OC1" .
Reply: inactive

Query: Please indicate how the test categorized "CCCn1c(=O)c2ccccc2n2c(SCC(=O)/C(C#N)=C(\C)N)nnc12" .
Reply: inactive

Query: Please indicate how the test categorized "CCOC(=O)C1=C(C)NC(C)=C(C(=O)OCC)C1C1=COCCO1" .
Reply: inactive

Query: Please indicate how the test categorized "COCCCN1C(=O)c2ccc(C(=O)Nc3ccc(OC)cc3OC)cc2C1=O" .
Reply: inactive

Query: Please indicate how the test categorized O=C(Oc1cc(OC(=O)c2ccccc2)c2c(c1)OC(c1ccc(OC(=O)c3ccccc3)c(OC(=O)c3ccccc3)c1)[C@@H](OC(=O)c1ccccc1)C2)c1ccccc1 (stereo not given in full) .
Reply: inactive

Query: Please indicate how the test categorized "CCOC(=O)N1CCN(C(=O)CN(c2ccc(C)c(C)c2)S(=O)(=O)c2ccccc2)CC1" .
Reply: inactive
